pKi values, listed per item
Target: UniProt:P61169
Test: Displacement of [3H]spiperone from dopamine receptor D2
Would you please state pKi, meaning minus log10 of the concentration in mol/L, as a bare number?

molecule	observed.result
CCCN(CCC)C1CCc2cc3cc[nH]c3cc2C1 (centres undefined)	6.46

[ask] Given the molecule CCCN(CCC)C1CCc2cccc(O)c2C1 (racemic) , what is its reported pKi?
[reply] 5.87

[ask] Now the same for CCCN(CCC)[C@@H]1CCc2ccc3[nH]ccc3c2C1
[reply] 7.00

[ask] Repeat for the following molecule: CCCN(CCC)C1CCc2ccc3[nH]ccc3c2C1 (racemic)
[reply] 6.81

----------
bioavailability overview
Assay: Bioavailability in rat
Assay type: ADME, organism-based
Conditions: in vivo
Give the number; % is assumed, so skip it.

compound	quantity	endpoint.unit	observed.result
CCCN(CCC)C1CCc2cccc(O)c2C1 (racemic)	bioavailability	%	2.4

Here is the next item to consider.
[ask] Which bioavailability value belongs to CCCN(CCC)[C@H]1CCc2ccc3[nH]cc(C(C)=O)c3c2C1 ?
[reply] 72

----------
Test system: Rattus norvegicus
Experiment: In vivo evaluation for 5-HTP accumulation in the hemispheres in male rats (sc)
Format: functional
Overview of reported ED50 across a group of molecules:
Only the number, expressed in µmol/kg, is required.

molecule	system.name	ED50 / µmol/kg
CCCN(CCC)C1CCc2ccc3[nH]cc(C=O)c3c2C1 (racemic)	Rattus norvegicus	0.067
CCCN(CCC)[C@H]1CCc2ccc3[nH]ccc3c2C1	Rattus norvegicus	0.2
CCCN(CCC)C1CCc2ccc3[nH]ccc3c2C1 (racemic)	Rattus norvegicus	0.11

[ask] # query: ED50 of entry CN(C)[C@@H]1CCc2ccc3[nH]ccc3c2C1
[reply] 0.4

[ask] Quick one: CCCN(CCC)[C@@H]1CCc2ccc3[nH]ccc3c2C1
[reply] 0.41

----------
Each entry below carries its reported ED50.
System: Rattus norvegicus
Test: In vivo evaluation for 5-HTP accumulation in the corpus striatum in male rats (sc)
Assay type: functional
Your answer is read as µmol/kg, so omit the unit and give the number.

molecule	ED50 / µmol/kg
CN(C)[C@H]1CCc2ccc3[nH]ccc3c2C1	3.9
CCCN(CCC)C1CCc2ccc3[nH]cc(C=O)c3c2C1 (racemic)	0.054
CCCN(CCC)[C@H]1CCc2ccc3[nH]ccc3c2C1	0.3
CN(C)C1CCc2ccc3[nH]ccc3c2C1 (racemic)	0.3
CN(C)[C@@H]1CCc2ccc3[nH]ccc3c2C1	0.1
CCCN(CCC)[C@@H]1CCc2ccc3[nH]ccc3c2C1	0.25
CCCN(CCC)[C@H]1CCc2ccc3[nH]cc(C(C)=O)c3c2C1	0.08
CCCN(CCC)[C@H]1CCc2cccc(O)c2C1	0.065
CCCN(CCC)[C@@H]1CCc2cccc(O)c2C1	0.047

[ask] # input molecule: CCCN(CCC)C1CCc2ccc3[nH]ccc3c2C1 (racemic) ; wanted: its ED50
[reply] 0.08

----------
Test: Half life of compound at 2 uM/dg administered intravenously
Type: ADME, organism-based
Conditions: in vivo, iv
quantity: half-life at 2 µM (h)
The reply should be a number in h, with the unit left off.

[ask] # get_value(readout='half-life at 2 µM', item= CCCN(CCC)[C@H]1CCc2ccc3[nH]cc(C(C)=O)c3c2C1 )
[reply] 1

----------
Biological target: D(2) dopamine receptor (Homo sapiens, UniProt P14416)
Sequence (P14416 whole entry): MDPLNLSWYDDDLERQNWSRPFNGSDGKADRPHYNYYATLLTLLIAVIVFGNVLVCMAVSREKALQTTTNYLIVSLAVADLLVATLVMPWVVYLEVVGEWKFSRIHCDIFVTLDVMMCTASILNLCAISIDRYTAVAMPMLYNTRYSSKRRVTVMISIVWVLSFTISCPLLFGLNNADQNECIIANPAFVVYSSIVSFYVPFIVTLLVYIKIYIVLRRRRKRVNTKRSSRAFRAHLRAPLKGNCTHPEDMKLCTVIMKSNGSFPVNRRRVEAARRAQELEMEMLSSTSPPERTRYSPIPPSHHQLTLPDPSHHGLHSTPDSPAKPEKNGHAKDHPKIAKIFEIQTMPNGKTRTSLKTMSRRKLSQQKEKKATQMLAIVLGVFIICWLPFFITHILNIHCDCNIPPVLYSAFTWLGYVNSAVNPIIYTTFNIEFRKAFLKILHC
Experiment: In vitro binding affinity against dopamine receptor D2 using [3H]raclopride as radioligand in CHO cells (sc)
quantity: Ki (nM)
Entry rule: numbers only, all in nM.

[ask] For the compound CCCN(CCC)[C@H]1CCc2ccc3[nH]cc(C(C)=O)c3c2C1 , what Ki is on record?
[reply] 423

----------
Test: Half life of compound at 1 uM/dg administered intravenously
Type: ADME, organism-based
Conditions: in vivo, iv
quantity: half-life (h)
Write the answer as a number in h, unit excluded.

[ask] Could you tell me which half-life is on file for CCCN(CCC)C1CCc2cccc(O)c2C1 (racemic) [8-OH-DPAT] ?
[reply] 1.2

----------
Molecular target: D(2) dopamine receptor (Rattus norvegicus)
Sequence (P61169 whole entry): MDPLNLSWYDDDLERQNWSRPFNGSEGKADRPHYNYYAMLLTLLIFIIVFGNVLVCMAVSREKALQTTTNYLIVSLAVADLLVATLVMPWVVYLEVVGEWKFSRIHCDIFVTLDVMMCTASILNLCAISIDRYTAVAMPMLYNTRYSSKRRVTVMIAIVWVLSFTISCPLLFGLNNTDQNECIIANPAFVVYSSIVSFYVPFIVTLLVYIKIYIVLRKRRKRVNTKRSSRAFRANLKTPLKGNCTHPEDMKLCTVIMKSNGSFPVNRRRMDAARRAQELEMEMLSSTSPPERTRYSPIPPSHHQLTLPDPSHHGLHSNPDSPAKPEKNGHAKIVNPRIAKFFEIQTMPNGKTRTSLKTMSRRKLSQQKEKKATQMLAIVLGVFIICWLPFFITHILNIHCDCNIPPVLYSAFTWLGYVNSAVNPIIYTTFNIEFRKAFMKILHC
Assay: In vitro binding affinity against dopamine receptor D2 using [3H]-Raclopride as radioligand in CHO cells (sc)
Type: cell-based
quantity: Ki (µM)
# value in µM; strip the unit string

[ask] # query: Ki of entry CCCN(CCC)C1CCc2ccc3[nH]cc(C=O)c3c2C1 (racemic)
[reply] 0.04

----------
Experiment: Time taken to reach the maximum concentration of compound at 2 uM/dg administered intravenously
Type: ADME, organism-based
Conditions: in vivo, iv
quantity: Tmax at 2 µM (min)
Reply numerically in min, unit not repeated.

[ask] For the molecule shown here, CCCN(CCC)[C@H]1CCc2ccc3[nH]cc(C(C)=O)c3c2C1 , give the reported Tmax at 2 µM.
[reply] 2

----------
Test system: Rattus norvegicus
Experiment: In vivo evaluation for 5-HTP accumulation in the limbic system in male rats (sc)
Type: functional
Each item that follows carries a reported ED50.
The reply should contain only the number, in µmol/kg.

Worked cases, ED50 given:
molecule	system.name	observed.result
CCCN(CCC)[C@H]1CCc2ccc3[nH]ccc3c2C1	Rattus norvegicus	0.16
CCCN(CCC)[C@H]1CCc2cccc(O)c2C1	Rattus norvegicus	0.061
CCCN(CCC)[C@@H]1CCc2ccc3[nH]ccc3c2C1	Rattus norvegicus	0.2
CCCN(CCC)C1CCc2ccc3[nH]ccc3c2C1 (racemic)	Rattus norvegicus	0.1
CN(C)[C@H]1CCc2ccc3[nH]ccc3c2C1	Rattus norvegicus	3.9
CCCN(CCC)C1CCc2ccc3[nH]cc(C=O)c3c2C1 (racemic)	Rattus norvegicus	0.06
CCCN(CCC)[C@H]1CCc2ccc3[nH]cc(C(C)=O)c3c2C1	Rattus norvegicus	0.09
CCCN(CCC)C1CCc2cccc(O)c2C1 (racemic)	Rattus norvegicus	0.052

[ask] Bench note: what ED50 did CN(C)C1CCc2ccc3[nH]ccc3c2C1 (racemic) show?
[reply] 0.3

[ask] Let us now turn to CCCN(CCC)[C@@H]1CCc2cccc(O)c2C1
[reply] 0.036

[ask] One more molecule: CN(C)[C@@H]1CCc2ccc3[nH]ccc3c2C1
[reply] 0.4

----------
Molecular target: 5-hydroxytryptamine receptor 1A (Mus musculus, UniProt Q64264)
Sequence (Q64264 whole entry): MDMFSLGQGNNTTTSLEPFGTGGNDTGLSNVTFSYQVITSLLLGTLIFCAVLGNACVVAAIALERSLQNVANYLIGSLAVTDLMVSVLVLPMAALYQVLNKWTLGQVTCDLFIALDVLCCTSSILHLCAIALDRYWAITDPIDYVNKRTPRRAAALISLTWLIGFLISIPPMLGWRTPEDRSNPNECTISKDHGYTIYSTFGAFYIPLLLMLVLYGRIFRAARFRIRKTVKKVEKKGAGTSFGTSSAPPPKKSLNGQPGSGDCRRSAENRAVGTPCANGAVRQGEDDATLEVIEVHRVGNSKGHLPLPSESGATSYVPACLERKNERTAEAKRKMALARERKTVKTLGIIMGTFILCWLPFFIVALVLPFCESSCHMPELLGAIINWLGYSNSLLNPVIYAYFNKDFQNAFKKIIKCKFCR
Assay: In vitro binding affinity against 5-hydroxytryptamine 1A receptor using [3H]-8-OH-DPAT as radioligand in CHO cells (sc)
quantity: Ki
Don't forget the unit after the number, please.

[ask] Fill in: Ki of CCCN(CCC)[C@H]1CCc2ccc3[nH]cc(C(C)=O)c3c2C1 is ___
[reply] 0.2 nM

----------
Target: D(2) dopamine receptor (Rattus norvegicus)
Experiment: Displacement of [3H]spiperone from dopamine receptor D2
Ki vs 0.8 µM: less than gives 1; not less than gives -1.

Example cases with answers are listed next.
compound	system.name	label
CCCN(CCC)C1CCc2ccc3[nH]cc(C=O)c3c2C1 (racemic)	D(2) dopamine receptor (Rattus norvegicus)	1
CCCN(CCC)[C@H]1CCc2ccc3[nH]ccc3c2C1	D(2) dopamine receptor (Rattus norvegicus)	1
CCCN(CCC)[C@H]1CCc2ccc3[nH]cc(C(C)=O)c3c2C1	D(2) dopamine receptor (Rattus norvegicus)	-1

[ask] Ki strictly < 0.8 µM for this compound? CCCN(CCC)[C@@H]1CCc2cccc(O)c2C1
[reply] -1

[ask] Now try CCCN(CCC)[C@H]1CCc2cccc(O)c2C1 .
[reply] -1

----------
// values below are reported ED50
Test system: Rattus norvegicus
Assay: In vivo evaluation for 5-HTP accumulation in the hemispheres in male rats (sc)
Format: functional
# number only, unit µmol/kg dropped from output

Known results for molecules:
molecule	ED50 [µmol/kg]
CCCN(CCC)[C@@H]1CCc2cccc(O)c2C1	0.05
CN(C)C1CCc2ccc3[nH]ccc3c2C1 (racemic)	0.4
CN(C)[C@H]1CCc2ccc3[nH]ccc3c2C1	2.7
CCCN(CCC)[C@H]1CCc2ccc3[nH]cc(C(C)=O)c3c2C1	0.095
CCCN(CCC)[C@H]1CCc2cccc(O)c2C1	0.077

Shift focus to the following entry.
[ask] Query (molecule): CCCN(CCC)C1CCc2cccc(O)c2C1 (racemic) ; field requested: ED50
[reply] 0.063
